System: SK-MEL-28;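 also: growth inhibition of human SK-MEL-28 cells, read out with a cell viability assay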
experiment: cells
Type: functional, cell-based
settings: Homo sapiens
Description: SANGER: Inhibition of human SK-MEL-28 cell growth in a cell viability assay.
pIC50: −log10 of the molar value.
Recorded pIC50 values for a group of molecules are listed next.
reported.property: pIC50

| molecule | result |
| --- | --- |
| CN(c1ncccc1CNc1nc(Nc2ccc3c(c2)CC(=O)N3)ncc1C(F)(F)F)S(C)(=O)=O | < 5.59 |
| C=CCc1cccc(/C=N/NC(=O)CN2CCN(Cc3ccccc3)CC2)c1O | < 5.59 |
| O=c1cc(-c2cccc3c2Sc2ccccc2S3)oc(N2CCOCC2)c1 | < 5.00 |
| C[C@]1(O)C[C@@H](c2nc(-c3ccc4ccc(-c5ccccc5)nc4c3)c3c(N)nccn32)C1 | < 5.59 |
| CN(Cc1cnc2nc(N)nc(N)c2n1)c1ccc(C(=O)N[C@@H](CCC(=O)O)C(=O)O)cc1 [METHOTREXATE] | < 6.70 |
| CC(=O)O[C@@]12CO[C@@H]1C[C@H](O)[C@@]1(C)C(=O)[C@H](O)C3=C(C)[C@@H](OC(=O)[C@H](O)[C@@H](NC(=O)OC(C)(C)C)c4ccccc4)C[C@@](O)([C@@H](OC(=O)c4ccccc4)[C@H]21)C3(C)C | 8.69 |
| COc1cc([C@@H]2c3cc4c(cc3[C@@H](O[C@@H]3O[C@@H]5CO[C@@H](C)O[C@H]5[C@H](O)[C@H]3O)[C@H]3COC(=O)[C@H]23)OCO4)cc(OC)c1O [ETOPOSIDE] | < 4.80 |
| Cc1cc([C@@H](C)Nc2ccccc2C(=O)O)c2nc(N3CCOCC3)cc(=O)n2c1 | < 5.29 |
| CC(=O)O[C@@H]1[C@@H](OC(C)=O)[C@@H](O)[C@H](Oc2c(-c3ccc(O)cc3)oc3cc(O)cc(O)c3c2=O)O[C@H]1C | < 5.00 |
